Test system: Streptococcus pyogenes
Assay: Subcutaneously administration into mice infected with Streptococcus pyogenes C 203
Format: functional
Details: sc

- input_smiles: "CC(=O)N[C@@H]1[C@H](O[C@@H]2c3ccc(c(Cl)c3)Oc3cc4cc(c3O[C@@H]3O[C@@H](CO)[C@@H](O)[C@H](O)[C@@H]3NC(=O)CCCCCCC(C)C)Oc3ccc(cc3Cl)C[C@H]3NC(=O)[C@H](N)c5ccc(O)c(c5)Oc5cc(O)cc(c5)[C@H](NC3=O)C(=O)N[C@H]4C(=O)N[C@H]3C(=O)N[C@@H]2C(=O)N[C@H](C(=O)NCCN2CCOCC2)c2cc(O)cc(O[C@H]4O[C@H](CO)[C@@H](O)[C@@H](O)[C@@H]4O)c2-c2cc3ccc2O)O[C@@H](CO)[C@@H](O)[C@@H]1O"
  ED50: "0.08 mg/kg"
- input_smiles: "CC(=O)N[C@@H]1[C@H](O[C@@H]2c3ccc(c(Cl)c3)Oc3cc4cc(c3O[C@@H]3O[C@@H](CO)[C@@H](O)[C@H](O)[C@@H]3NC(=O)CCCCCCC(C)C)Oc3ccc(cc3Cl)C[C@H]3NC(=O)[C@H](N)c5ccc(O)c(c5)Oc5cc(O)cc(c5)[C@H](NC3=O)C(=O)N[C@H]4C(=O)N[C@H]3C(=O)N[C@@H]2C(=O)N[C@H](C(=O)N(C)CCN(C)C)c2cc(O)cc(O[C@H]4O[C@H](CO)[C@@H](O)[C@@H](O)[C@@H]4O)c2-c2cc3ccc2O)O[C@@H](CO)[C@@H](O)[C@@H]1O"
  ED50: "0.15 mg/kg"
- input_smiles: "CN(C)CCNC(=O)[C@H]1NC(=O)[C@H]2NC(=O)[C@H](NC(=O)[C@@H]3NC(=O)[C@H]4NC(=O)[C@@H](Cc5ccc(c(Cl)c5)Oc5cc3cc(c5O)Oc3ccc(cc3Cl)[C@H]2O)NC(=O)[C@H](N)c2ccc(O)c(c2)Oc2cc(O)cc4c2)c2ccc(O)c(c2)-c2c(O)cc(O)cc21"
  ED50: "1.25 mg/kg"
